Test: Timed organ biodistribution of [^64Cu]Cu-DOTATATE by ex vivo gamma counting
Assay type: in vivo, mice
Details: mouse, abdominal aorta, intravenous, 1.85 MBq, total radioactivity; female Apoe^-/- mice 12 weeks on Western Diet, 15 min after injection, median (IQR), N=3-8; read-out: Tissue radioactivity, abdominal aorta
readout-type: tissue uptake at 0.25 h (%ID/g)
Answers are plain numbers, in %ID/g.

Q: Provide only the value of recorded tissue uptake at 0.25 h for C[C@@H](O)[C@H](NC(=O)[C@@H]1CSSC[C@H](NC(=O)[C@@H](Cc2ccccc2)NC(=O)CN2CCN(CC(=O)O)CCN(CC(=O)O)CCN(CC(=O)O)CC2)C(=O)N[C@@H](Cc2ccc(O)cc2)C(=O)N[C@H](Cc2c[nH]c3ccccc23)C(=O)N[C@@H](CCCCN)C(=O)N[C@@H]([C@@H](C)O)C(=O)N1)C(=O)O [[^64Cu]Cu-DOTATATE, metal not drawn]
Result: 2.1

* * *

Assay: Organ biodistribution of [^68Ga]Ga-DOTATATE by ex vivo gamma counting
Assay type: in vivo, New Zealand White rabbits
Details: male, New Zealand White, rabbit, small intestine, iv, 190 MBq, total radioactivity, male athero4mo rabbits, 200 min after tracer injection, median (IQR), N = 9; read-out: Tissue radioactivity, small intestine
readout-type: tissue uptake at 200 min (%ID/g)
Numbers only, in %ID/g.

Q: Provide only the value of recorded tissue uptake at 200 min for C[C@@H](O)[C@H](NC(=O)[C@@H]1CSSC[C@H](NC(=O)[C@@H](Cc2ccccc2)NC(=O)CN2CCN(CC(=O)O)CCN(CC(=O)O)CCN(CC(=O)O)CC2)C(=O)N[C@@H](Cc2ccc(O)cc2)C(=O)N[C@H](Cc2c[nH]c3ccccc23)C(=O)N[C@@H](CCCCN)C(=O)N[C@@H]([C@@H](C)O)C(=O)N1)C(=O)O [[^68Ga]Ga-DOTATATE, metal not drawn]
Result: 0.021

* * *

Test: Timed organ biodistribution of [^64Cu]Cu-DOTATATE by ex vivo gamma counting
Assay type: in vivo, mice
Details: mouse, muscle, intravenous, 1.85 MBq, total radioactivity; female Apoe^-/- mice 12 weeks on Western Diet, 15 min after injection, median (IQR), N=3-8; read-out: Tissue radioactivity, muscle
Protocol: Wild-type and atherosclerotic animals were injected with approximately 1.85 MBq of [^64Cu]Cu-DOTATATE and euthanized at either 1, 5, 15, 30, 60 or 120 min after injection (Supplementary Fig. S1A) to evaluate the tracer’s biodistribution. […] Values were corrected for decay and normalized to tissue weight to express radioactivity concentration as percentage injected dose per gram (%ID/g). […] Plasma (supernatant) and cells (pellet) were gamma counted and expressed as percentage of total activity. […]
readout-type: tissue uptake at 0.25 h (%ID/g)
Answers are plain numbers, in %ID/g.

Q: Provide only the value of recorded tissue uptake at 0.25 h for C[C@@H](O)[C@H](NC(=O)[C@@H]1CSSC[C@H](NC(=O)[C@@H](Cc2ccccc2)NC(=O)CN2CCN(CC(=O)O)CCN(CC(=O)O)CCN(CC(=O)O)CC2)C(=O)N[C@@H](Cc2ccc(O)cc2)C(=O)N[C@H](Cc2c[nH]c3ccccc23)C(=O)N[C@@H](CCCCN)C(=O)N[C@@H]([C@@H](C)O)C(=O)N1)C(=O)O [[^64Cu]Cu-DOTATATE, metal not drawn]
Result: 0.6
